target: CCK receptor (brain) (Cavia porcellus, UniProt H0VZC5); construct: the cortex was removed and homogenized in 25 mL ice-cold 0.32M sucrose; from tissue; host or cells: guinea pig brain cortex P2 membranes (male Hartley); assay: CCK Receptor Binding (Brain), inhibition of 125I-CCK-8 binding; design: species or system Male Hartley guinea pigs
Value Kind: IC50 (nM)

[[record]]
molecule = "Cc1cccc(NC(=O)NC2N=C(c3ccccc3)c3ccccc3N(Cc3ncc[nH]3)C2=O)c1 (stereo not shown)"
measurement_unit = "nM"
measured = 58.9


---

Target: CCK receptor (brain) (Cavia porcellus, UniProt H0VZC5)
Construct: the cortex was removed and homogenized in 25 mL ice-cold 0.32M sucrose; from tissue; host or cells: guinea pig brain cortex P2 membranes (male Hartley)
Sequence (H0VZC5 1-426): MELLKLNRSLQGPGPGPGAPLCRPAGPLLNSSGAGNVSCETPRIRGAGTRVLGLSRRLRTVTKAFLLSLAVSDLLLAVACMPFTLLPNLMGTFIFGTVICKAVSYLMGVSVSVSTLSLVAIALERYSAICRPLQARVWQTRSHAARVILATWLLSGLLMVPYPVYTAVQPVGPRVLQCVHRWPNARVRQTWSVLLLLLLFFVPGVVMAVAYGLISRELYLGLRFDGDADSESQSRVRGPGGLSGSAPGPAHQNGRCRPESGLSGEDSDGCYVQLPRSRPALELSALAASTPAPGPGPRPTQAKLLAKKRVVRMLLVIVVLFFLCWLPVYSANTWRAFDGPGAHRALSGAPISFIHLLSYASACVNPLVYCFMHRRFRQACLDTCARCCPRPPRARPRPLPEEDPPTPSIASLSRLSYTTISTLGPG
Assay: CCK Receptor Binding (Brain), inhibition of 125I-CCK-8 binding
Set-up: species or system Male Hartley guinea pigs
Details: guinea pig cortex, 125I-CCK-8 50 pM, 25° C., 2 hours; read-out: CCK RECEPTOR BINDING RESULTS IC50, 125I-CCK Brain
Value Kind: IC50 (nM)

[[record]]
compound = "Cc1cccc(NC(=O)NC2N=C(c3ccccc3)c3ccccc3N(Cc3c[nH]cn3)C2=O)c1 (stereo not drawn)"
value_kind = "IC50"
measured = 7.9

[[record]]
compound = "Cc1cccc(NC(=O)NC2N=C(c3ccccc3)c3ccccc3N(Cc3n[nH]c(C)n3)C2=O)c1 (racemic)"
value_kind = "IC50"
measured = 10

[[record]]
compound = "O=C(Nc1cccc(-c2nn[nH]n2)c1)N[C@@H]1N=C(c2ccccc2)c2ccccc2N(CC(=O)N2CCCC2)C1=O"
value_kind = "IC50"
measured = 0.12


---

Molecular target: CCK receptor (pancreas) (Rattus norvegicus, UniProt P30551)
Construct: The whole pancreas was dissected free of fat tissue and was homogenized
Sequence (P30551 1-444): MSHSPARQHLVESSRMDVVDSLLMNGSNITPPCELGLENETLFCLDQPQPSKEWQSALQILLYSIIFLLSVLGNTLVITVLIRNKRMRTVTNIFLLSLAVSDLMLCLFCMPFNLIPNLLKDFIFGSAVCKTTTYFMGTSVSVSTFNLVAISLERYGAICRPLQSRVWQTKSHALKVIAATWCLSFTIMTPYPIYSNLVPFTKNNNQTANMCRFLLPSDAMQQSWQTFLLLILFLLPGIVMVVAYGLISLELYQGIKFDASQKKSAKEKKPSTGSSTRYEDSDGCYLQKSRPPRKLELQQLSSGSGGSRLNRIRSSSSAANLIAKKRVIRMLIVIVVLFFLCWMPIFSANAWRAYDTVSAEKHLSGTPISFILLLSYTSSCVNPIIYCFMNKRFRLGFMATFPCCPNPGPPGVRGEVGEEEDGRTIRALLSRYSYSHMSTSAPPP
Assay: CCK Receptor Binding (Pancreas), inhibition of 125I-CCK-8 binding
Conditions: 125I-CCK-8 50 pM, 25° C., 2 hours
Quick reference: IC50 of the listed items.
Value Kind: IC50 (nM)

[[record]]
molecule = "Cc1cccc(NC(=O)NC2N=C(c3ccccc3)c3ccccc3N(Cc3ncc[nH]3)C2=O)c1 (centres unmarked)"
measured = 258

[[record]]
molecule = "Cc1cccc(NC(=O)NC2N=C(c3ccccc3)c3ccccc3N(Cc3c[nH]cn3)C2=O)c1 (centres unmarked)"
measured = 11

